target: human complement factor D (Homo sapiens, UniProt P00746); construct: purchased R&D Systems 1824-SE; assay: In vitro enzyme inhibition of human complement factor D (Z-Lys-SBzl/DTNB, A405); assay type: biochemical; conditions: biochemical assay, substrate Z-Lys-SBzl; read-out: CFD IC50
Sequence (P00746 26-253): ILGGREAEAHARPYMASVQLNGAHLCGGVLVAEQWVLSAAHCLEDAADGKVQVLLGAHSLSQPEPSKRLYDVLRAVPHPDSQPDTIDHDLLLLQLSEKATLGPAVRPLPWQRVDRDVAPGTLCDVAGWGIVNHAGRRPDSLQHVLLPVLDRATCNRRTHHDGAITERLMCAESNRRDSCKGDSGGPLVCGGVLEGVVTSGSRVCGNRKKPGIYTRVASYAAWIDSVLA
Provide the reported IC50 of each item.

Test item NC(=O)n1cc(NC(=O)N(CC(=O)NCc2cccc(Cl)c2F)C2CCNC2)c2ccccc21 (centres unmarked) ; human complement factor D (Homo sapiens, UniProt P00746); reported IC50 was 100 to 1000 nM

Lab entry: human complement factor D (Homo sapiens, UniProt P00746) assay, compound NC(=O)c1nn(CC(=O)N(CC(=O)NCc2cccc(Cl)c2F)C2CC2)c2c(Cl)cccc12 , IC50 = < 100 nM

Bench note, human complement factor D (Homo sapiens, UniProt P00746): Cc1cccc(CNC(=O)CN(C(=O)Cn2nc(C(N)=O)c3ccccc32)C2CC2)c1F , IC50 reads 100 to 1000 nM

Value sought: IC50, system human complement factor D (Homo sapiens, UniProt P00746), item NC(=O)c1nn(CC(=O)N(CC(=O)NCc2cccc(Cl)c2F)C(CO)C2CC2)c2ccccc12 (centres unmarked) . Result: 1000 to 10000 nM

Lab entry: human complement factor D (Homo sapiens, UniProt P00746) assay, compound NC(=O)c1nn(CC(=O)N(CC(=O)NCc2cc(Cl)cc3ccoc23)C2CC2)c2ccccc12 , IC50 = 100 to 1000 nM

Result for NC(=O)c1nn(CC(=O)N(CC(=O)NCc2ccc(Cl)c(Cl)c2)C2CC2)c2ccccc12 , tested on human complement factor D (Homo sapiens, UniProt P00746), IC50: 1000 to 10000 nM

Record NC(=O)c1nn(CC(=O)N(CC(=O)Nc2cccc(Cl)n2)C2CCNC2)c2ccccc12 (centres unmarked) / human complement factor D (Homo sapiens, UniProt P00746), IC50 recorded as 1000 to 10000 nM

Kindly note: human complement factor D (Homo sapiens, UniProt P00746), NC(=O)c1nn(CC(=O)N(CC(=O)Nc2cccc(Cl)n2)C2CNC2)c2ccccc12 , IC50 value reported: 1000 to 10000 nM

###

molecular target: human complement factor D (Homo sapiens); construct: purchased R&D Systems 1824-SE; assay: In vitro enzyme inhibition of human complement factor D (Z-Lys-SBzl/DTNB, A405); assay type: biochemical; details: biochemical assay, substrate Z-Lys-SBzl; read-out: CFD IC50
measured.parameter: IC50

The compound identified as NC(=O)c1nn(CC(=O)N(CC(=O)NCc2cccc(CO)c2F)C2CC2)c2ccccc12 registered its IC50 at > 10000 nM

Form field IC50, entry CCOC(=O)CC(C)N(CC(=O)NCc1cccc(Cl)c1F)C(=O)Cn1nc(C(N)=O)c2ccccc21 (stereo not shown) : 100 to 1000 nM

What the record says about CC(C)N(CC(=O)NCc1cccc(Cl)c1F)C(=O)Nc1cn(C(N)=O)c2ccccc12 : IC50 is 100 to 1000 nM

Briefly, IC50 measured for Cc1cc(Cl)cc(CNC(=O)CN(C(=O)Cn2nc(C(N)=O)c3ccccc32)C2CC2)c1 : 1000 to 10000 nM

The recorded IC50 for NC(=O)c1nn(CC(=O)N(CC(=O)Nc2cccc(Cl)c2F)C2CC2)c2ccccc12 is 100 to 1000 nM

Summary for this compound, NC(=O)c1nn(CC(=O)N(CC(=O)NCc2ccc(F)c(Cl)c2F)C2CC2)c2ccccc12 : IC50 is 100 to 1000 nM

Value of IC50 reported for the compound NC(=O)c1nc(NC(=O)N(CC(=O)NCc2cccc(Cl)c2F)C2CC2)c2ccccn12 is 100 to 1000 nM

Memo: NC(=O)c1nn(CC(=O)N(CC(=O)NCc2cc(Cl)cc3[nH]ncc23)C2CC2)c2ccccc12 , reported IC50: 100 to 1000 nM

Documented IC50 of NC(=O)c1nn(CC(=O)N(CC(=O)NCc2cccc(Cl)c2F)C(CCO)C2CC2)c2ccccc12 (stereo not shown) : 1000 to 10000 nM

Field IC50 (entry NC(=O)CC(C1CC1)N(CC(=O)NCc1cccc(Cl)c1F)C(=O)Cn1nc(C(N)=O)c2ccccc21 (stereo not shown) ) reads 1000 to 10000 nM

get_value(item= CC(=O)c1nc(NC(=O)N(CC(=O)NCc2cccc(Cl)c2F)C2CC2)c2ccccn12 , readout=IC50) returns 100 to 1000 nM

For record NC(=O)c1nn(CC(=O)N(CC(=O)Nc2cccc(Cl)n2)Cc2ccncc2)c2ccccc12 the listed IC50 is > 10000 nM

Reported IC50 for NC(=O)c1nn(CC(=O)N(CC(=O)NCc2cccc(N)c2F)C2CC2)c2ccccc12 was 1000 to 10000 nM

CC1CC1N(CC(=O)NCc1cccc(Cl)c1F)C(=O)Cn1nc(C(N)=O)c2ccccc21 (stereo not shown) yielded IC50 of 100 to 1000 nM

Lab note: measured IC50 of NC(=O)c1ccc(CNC(=O)CN(C(=O)Cn2nc(C(N)=O)c3ccccc32)C2CC2)c(F)c1 was 1000 to 10000 nM

The measured IC50 associated with NC(=O)c1nn(CC(=O)N(CC(=O)NCc2cc(Cl)c3cn[nH]c3c2)C2CC2)c2ccccc12 reads 1000 to 10000 nM
